Experimental system: T1, Human SLC34A2 (human, UniProt O95436 1-690)
T1 construct: whole, on cells; also called SLC34A2 on OVCAR3 cells; Rat 1E Human SLC34A2
T1 sequence (looked up): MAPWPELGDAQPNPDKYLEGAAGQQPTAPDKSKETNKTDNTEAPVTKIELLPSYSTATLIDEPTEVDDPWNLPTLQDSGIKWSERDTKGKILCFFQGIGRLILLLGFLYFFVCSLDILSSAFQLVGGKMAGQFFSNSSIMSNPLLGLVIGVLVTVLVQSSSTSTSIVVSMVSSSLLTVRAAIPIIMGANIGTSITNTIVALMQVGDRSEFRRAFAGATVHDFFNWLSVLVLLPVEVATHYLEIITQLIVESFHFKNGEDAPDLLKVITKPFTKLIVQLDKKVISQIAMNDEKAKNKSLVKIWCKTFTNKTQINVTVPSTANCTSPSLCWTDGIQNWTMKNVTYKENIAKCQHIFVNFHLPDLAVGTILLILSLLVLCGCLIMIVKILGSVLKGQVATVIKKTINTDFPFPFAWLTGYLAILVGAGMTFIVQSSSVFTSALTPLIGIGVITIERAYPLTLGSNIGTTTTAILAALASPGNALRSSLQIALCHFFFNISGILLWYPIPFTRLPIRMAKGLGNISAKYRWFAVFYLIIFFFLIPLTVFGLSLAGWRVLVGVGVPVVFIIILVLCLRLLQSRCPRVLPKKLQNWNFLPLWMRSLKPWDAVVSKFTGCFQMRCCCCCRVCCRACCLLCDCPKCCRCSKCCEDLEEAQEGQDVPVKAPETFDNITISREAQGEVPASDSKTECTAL
Experiment description: binding affinity on Rat1E cells expressing human SLC34A2
Readout label: Kd (nM)
Number only, in nM; omit the unit.

Below are worked cases with known answers.
[[record]]
binder = "cHv83-3a23.G1(L328C)k (antibody, V domains shown, the name says L328C in the IgG1 constant region; also called [Ag]AB-2; unconjugated antibody of OT1 / OT#1) VH: EVQLVESGGGLVQPGGSLRLSCAASGFTFSSYVMHWVRQAPGKGLEYVSGVSSSGDSTFYVDSVKGRFTISRDNSKNTLYLQMGSLRAEDMAVYYCARGGITGAPLVFDIWGQGTMVTVSS VL: DIQMTQSPSSLSASVGDRVTITCRASQSISRFLNWYQQKPGKAPKVLIYVTSSLQSGVPSRFSGSGSGTDFTLTISSLQPEDFATYYCQQSYNTPITFGQGTRLEIKR"
readout_label = "Kd"
assay_result = 0.553

[[record]]
binder = "cHv83-1b15.G1(L328C)k-AGL-01332-93 (OT#2) (other, AGL-01332-93 drug-linker conjugated to the antibody; engineered Cys at 328 (L328C) lies in the IgG1 constant region, outside the VH pieces given, Human IgG1 (L328C) / kappa) VH: EVQLVESGGGWVQPGGSLRLSCAASGFTFSSHIMYWVRQAPGKGLEYVSGISSNGLSSYYVDSVKGRFTISRDNSKNLLYVHMGSLKPEDMAMYYCARGGRDRVPAVFDYWGQGTLVTVSS VL: DIQMTQSPSSLSASIGDRVTITCRASQSIGTFLNWYQQKPGKAPKVLIYVASSLQSGVPSRFIGSGSGTDFTLTISSLQPEDFATYYCQQSYSVPITFGQGTRLEIKR"
readout_label = "Kd"
assay_result = 1.76

[[record]]
binder = "cHv83-3a23.G1(L328C)k-AGL-01332-93 (OT#1) (other, AGL-01332-93 drug-linker conjugated to the antibody; engineered Cys at 328 (L328C) lies in the IgG1 constant region, outside the VH pieces given, Human IgG1 (L328C) / kappa) VH: EVQLVESGGGLVQPGGSLRLSCAASGFTFSSYVMHWVRQAPGKGLEYVSGVSSSGDSTFYVDSVKGRFTISRDNSKNTLYLQMGSLRAEDMAVYYCARGGITGAPLVFDIWGQGTMVTVSS VL: DIQMTQSPSSLSASVGDRVTITCRASQSISRFLNWYQQKPGKAPKVLIYVTSSLQSGVPSRFSGSGSGTDFTLTISSLQPEDFATYYCQQSYNTPITFGQGTRLEIKR"
readout_label = "Kd"
assay_result = 0.411


Would you kindly look at the next entry?
Can you look up the measured Kd of cHv83-1b15.G1(L328C)k (antibody, V domains shown, the name says L328C in the IgG1 constant region; also called [Ag]AB-3; cHv83-1b15.G1k(L328C)k) VH: EVQLVESGGGWVQPGGSLRLSCAASGFTFSSHIMYWVRQAPGKGLEYVSGISSNGLSSYYVDSVKGRFTISRDNSKNLLYVHMGSLKPEDMAMYYCARGGRDRVPAVFDYWGQGTLVTVSS VL: DIQMTQSPSSLSASIGDRVTITCRASQSIGTFLNWYQQKPGKAPKVLIYVASSLQSGVPSRFIGSGSGTDFTLTISSLQPEDFATYYCQQSYSVPITFGQGTRLEIKR for me?
0.721
